Target: Endothelial lipase (Homo sapiens, UniProt Q9Y5X9)
Sequence (Q9Y5X9 whole entry): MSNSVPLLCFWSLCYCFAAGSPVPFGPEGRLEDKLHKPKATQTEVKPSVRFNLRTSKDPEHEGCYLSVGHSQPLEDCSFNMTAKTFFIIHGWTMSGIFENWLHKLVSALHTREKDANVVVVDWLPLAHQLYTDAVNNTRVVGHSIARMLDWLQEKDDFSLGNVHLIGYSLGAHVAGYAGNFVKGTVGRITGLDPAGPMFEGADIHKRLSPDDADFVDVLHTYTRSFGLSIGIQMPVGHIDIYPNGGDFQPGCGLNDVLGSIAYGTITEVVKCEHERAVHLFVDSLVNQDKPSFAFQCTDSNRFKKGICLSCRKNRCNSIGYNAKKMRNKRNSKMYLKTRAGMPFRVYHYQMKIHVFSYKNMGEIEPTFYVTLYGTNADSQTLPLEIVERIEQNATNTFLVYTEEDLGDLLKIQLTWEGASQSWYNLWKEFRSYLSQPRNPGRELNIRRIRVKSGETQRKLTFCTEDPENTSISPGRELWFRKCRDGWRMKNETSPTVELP
Protocol Text: Inhibition of recombinant human endothelial lipase expressed in African green monkey COS7 cells using HDL as substrate pretreated for 10 mins followed by substrate addition and measured after 30 mins by LC/MS/MS analysis
Mark Y only when IC50 stays strictly below 200 nM. Values equal to the cut-off are N.

Prompt: I'd appreciate it if you could check whether `Nc1c(C(=O)N[C@@H]2CCCc3c(OCc4ccccc4)cccc32)[nH]c(=O)[nH]c1=O` has IC50 smaller than 200 nM.
Completion: Y

Prompt: I'd appreciate it if you could check whether `O=C(N[C@H]1CC[C@@H](c2ccccc2)CC1)c1[nH]c(=O)[nH]c(=O)c1O` has IC50 smaller than 200 nM.
Completion: Y

Prompt: I'd appreciate it if you could check whether `Nc1c(C(=O)N[C@H]2CC[C@@H](c3ccccc3)C2)[nH]c(=O)[nH]c1=O` has IC50 smaller than 200 nM.
Completion: N

Prompt: I'd appreciate it if you could check whether `CCN1CC(C(=O)N[C@H]2CC[C@@H](c3ccccc3)CC2)=C(O)C1=O` has IC50 smaller than 200 nM.
Completion: Y

Prompt: I'd appreciate it if you could check whether `O=C(N[C@H]1CC[C@@H](c2ccccc2)CC1)c1[nH]c(=O)[nH]c(=O)c1NC1CCCC1` has IC50 smaller than 200 nM.
Completion: Y

Prompt: I'd appreciate it if you could check whether `Nc1c(C(=O)N[C@H]2CC[C@@H](c3ccccc3)CC2)n(-c2ccccc2)c(=O)[nH]c1=O` has IC50 smaller than 200 nM.
Completion: N
